Target: KRAS G12C mutant (Homo sapiens, UniProt P01116, G12C)
Construct: 50 μM G12C K-Ras4B (1-169) protein and 1 mM BODIPY® FL GDP; His tag (N, cleaved yes); made in house; host or cells: E. coli BL21 (DE3)
Sequence (P01116 1-169 isoform P01116-2 G12C): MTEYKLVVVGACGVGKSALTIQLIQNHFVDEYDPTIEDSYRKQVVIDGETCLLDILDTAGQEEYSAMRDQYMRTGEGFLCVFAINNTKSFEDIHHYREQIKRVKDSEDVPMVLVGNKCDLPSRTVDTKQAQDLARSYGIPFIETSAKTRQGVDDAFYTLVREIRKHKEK
Test: Inhibition of SOS1-mediated nucleotide (GDP-GTP) exchange reaction of KRAS G12C mutant, BODIPY FL GDP fluorescence
Format: biochemical
Details: preincubated 25° C. 4 hours with 25 nM KRAS G12C bound with BODIPY FL GDP; SOS1 100 nM, GppNHp 1 μM, 30 minutes
From the text: SOS1 protein was expressed in E. coli strain BL21 (DE3) by synthesizing a nucleotide sequence encoding the amino acid sequence represented by GenPept ID NP_005624 as a sequence optimized for E. coli by use of GeneArt Technology (Life Technologies Corp.) such that the protein was N-terminally His-tagged and fused with a TEV protease recognition sequence (ENLYFQG). […]
assay.endpoint: IC50 (nM)

Consider the worked cases shown below.
C=CC(=O)N1CC(NC(=O)c2cc(CNc3cc(C(C)(C)C)c(Cl)cc3O)ccc2F)C1 | 1000
C=CC(=O)N1CC(NC(=O)c2ccc(C(C)Nc3cc(C(C)(C)C)c(Cl)cc3O)o2)C1 (stereo not shown) | 3900
C=CC(=O)N1CC(NC(=O)c2nc(CNc3cc(C(C)(C)C)c(Cl)cc3O)co2)C1 | 420
CN(C)C/C=C/C(=O)N1CC(NC(=O)c2cnc(CNc3cc(C(C)(C)C)c(Cl)cc3O)s2)C1 | 701
C=CC(=O)N1CC(NC(=O)c2ccc(CNc3cc(C4CC4(F)F)c(Cl)cc3O)o2)C1 (stereo not shown) | 763

a. C=CC(=O)N1CC(NC(=O)c2c(C)nc(CNc3cc(C(C)(C)C)c(Cl)cc3O)n2C2CCCC2)C1
b. C=CC(=O)N1CC(NC(=O)c2ccc(CNc3cc(C(C)(C)C)c(C#N)cc3O)o2)C1
c. C=CC(=O)N1CC(NC(=O)c2ccc(CNc3cc(C(C)(C)C)c(Cl)cc3O)cc2Cl)C1
d. C=CC(=O)N1CC(NC(=O)c2cnc(CNc3cc(C(C)(C)C)c(Cl)cc3O)[nH]2)C1
Task item: Please list these in order of increasing IC50. Thank you! Output the labels ranked as instructed.
Reply: a, d, b, c

I. C=CC(=O)N1CC(N(CC)C(=O)c2ccc(CNc3cc(C(C)(C)C)c(Cl)cc3O)o2)C1
II. C=CC(=O)N1CC(NC(=O)c2ccc(CNc3cc(C(C)(C)C)c(Cl)cc3O)o2)C1
Task item: Which record shows the lower IC50: the first, I , or the second, II ? Return value: the label identifying the chosen record.
Reply: I

1. C=CC(=O)N1CC(NC(=O)c2c(C)nc(CNc3cc(C(C)(C)C)c(Cl)cc3O)n2CCCC)C1
2. C=CC(=O)N1CC(NC(=O)c2cnc(CNc3cc(C(C)(C)C)c(Cl)cc3O)n2CC)C1
3. C=CC(=O)N1CC(NC(=O)c2cnc(C(O)c3cc(C(C)(C)C)c(Cl)cc3O)n2C)C1 (stereo not shown)
Task item: Please list these in order of increasing IC50. Thank you! Output the labels ranked as instructed.
Reply: 1, 2, 3

----------
target: KRAS G12C mutant (Homo sapiens, UniProt P01116, G12C); construct: 50 μM G12C K-Ras4B (1-169) protein and 1 mM BODIPY® FL GDP; His tag (N, cleaved yes); made in house; host or cells: E. coli BL21 (DE3); assay: Inhibition of SOS1-mediated nucleotide (GDP-GTP) exchange reaction of KRAS G12C mutant, BODIPY FL GDP fluorescence; format: biochemical; details: preincubated 25° C. 4 hours with 25 nM KRAS G12C bound with BODIPY FL GDP; SOS1 100 nM, GppNHp 1 μM, 30 minutes
assay.endpoint: IC50 (nM)

C=CC(=O)N1CC(NC(=O)c2cnc(CNc3cc(CCC)c(Cl)cc3O)n2C)C1 | 366
C=CC(=O)N1CC(NC(=O)c2cccc(CNc3cc(C(C)(C)C)c(Cl)cc3O)c2)C1 | 815
C=CC(=O)N1CC[C@@H](N(C)C(=O)c2ccc(CNc3cc(C(C)(C)C)c(Cl)cc3O)o2)C1 | 164

a. C=CC(=O)N1CC(NC(=O)c2c(C)nc(CNc3cc4c(cc3O)CCC4(C)C)n2C)C1
b. C=CC(=O)N1CC(NC(=O)c2cnc(CNc3cc(C(C)(C)C)c(Cl)cc3O)n2C)C1
c. C=CC(=O)N1CC(NC(=O)c2cnc(CNc3cc(C(C)(C)C)c(Cl)cc3O)s2)C1
d. C=CC(=O)N1CC(NC(=O)c2ccc(CNc3cc(C(C)(C)C)ccc3O)o2)C1
Task item: Could you please sort these 4 entries by IC50 from high to low? Output the labels ranked as instructed.
Reply: d, a, c, b
(d: 9800 nM, a: 164 nM, c: 39 nM, b: 11 nM)

Cited source for all entries: patent US12479834B2
